These entries and their values trace back to PubChem BioAssay AID1347418.

# Target Under Test: Sulfhydryl oxidase 1 (Homo sapiens) (UniProt O00391)
# Sequence (O00391 whole entry, looked up): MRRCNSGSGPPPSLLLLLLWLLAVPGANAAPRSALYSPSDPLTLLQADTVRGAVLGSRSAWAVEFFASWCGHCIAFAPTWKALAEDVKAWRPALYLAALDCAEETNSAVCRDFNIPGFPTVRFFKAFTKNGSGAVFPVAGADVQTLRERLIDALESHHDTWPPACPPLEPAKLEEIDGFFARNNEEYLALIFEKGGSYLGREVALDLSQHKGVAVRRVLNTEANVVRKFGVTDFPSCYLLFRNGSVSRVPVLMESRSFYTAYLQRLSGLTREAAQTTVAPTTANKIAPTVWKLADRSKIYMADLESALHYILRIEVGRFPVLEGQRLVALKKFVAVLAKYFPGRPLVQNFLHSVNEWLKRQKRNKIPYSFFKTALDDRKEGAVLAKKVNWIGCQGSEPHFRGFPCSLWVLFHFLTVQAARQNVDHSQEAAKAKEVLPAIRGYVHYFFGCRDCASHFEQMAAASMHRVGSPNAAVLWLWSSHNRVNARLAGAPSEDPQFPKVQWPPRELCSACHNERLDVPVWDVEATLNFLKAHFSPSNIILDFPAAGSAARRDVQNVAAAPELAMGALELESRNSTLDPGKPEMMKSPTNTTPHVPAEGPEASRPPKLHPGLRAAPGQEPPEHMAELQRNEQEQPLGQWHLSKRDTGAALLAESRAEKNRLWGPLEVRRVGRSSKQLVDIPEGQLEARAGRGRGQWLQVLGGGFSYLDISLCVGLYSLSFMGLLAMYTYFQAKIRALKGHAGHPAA
# Assay: QSOX1 enzyme inhibitors, primary screen, biochemical, ROS-Glo H2O2 luminescence, HTS (AID 1347418)
# Cond: recombinant QSOX1, ROS-Glo H2O2 luminescence; at 12.5 µM; hits give high values; active = any value above zero
Screen size: about 1,300 compounds; about 750 (58%) were called active. This is one part of the list.
Assay Readout: inhibition

{"columns": ["Compound", "Measured Result"],
 "data": [
  ["NC(=O)c1ncn([C@@H]2O[C@H](CO)[C@@H](O)[C@H]2O)c1O", "-0.4% (inactive)"],
  ["Cc1cn([C@H]2C[C@@H](N=[N+]=[N-])[C@@H](CO)O2)c(=O)[nH]c1=O", "1.9% (active)"],
  ["Nc1ccn([C@H]2CC[C@@H](CO)O2)c(=O)n1", "-3.2% (inactive)"],
  ["COc1ccc(-c2cc3ncc(C)n3c(Nc3ncccc3C(N)=O)n2)cc1OC", "-0.2% (inactive)"],
  ["Nc1ccn([C@@H]2O[C@H](CO)[C@@H](O)C2O)c(=O)n1 (stereo not given in full)", "6% (active)"]
]}

----------
# Target Under Test: Sulfhydryl oxidase 1 (Homo sapiens)
# Assay: QSOX1 enzyme inhibitors, primary screen, biochemical, ROS-Glo H2O2 luminescence, HTS (AID 1347418)
# Cond: recombinant QSOX1, ROS-Glo H2O2 luminescence; at 12.5 µM; hits give high values; active = any value above zero
The whole screen tested about 1,300 compounds, of which about 750 (58%) were called active. This is one part of the list.
Classes used: active, inactive

{"columns": ["Compound", "Answer Label"],
 "data": [
  ["CC1CN(S(=O)(=O)c2cccc3cnccc23)CCN1 (centres undefined)", "active"],
  ["O=C(c1cc(O)c(O)c([N+](=O)[O-])c1)c1ccccc1F", "active"],
  ["CCOC(=O)N1CCC(=C2c3ccc(Cl)cc3CCc3cccnc32)CC1", "inactive"],
  ["CC(O)C(O)[C@H]1CNc2nc(N)[nH]c(=O)c2N1 (some centres undefined)", "active"],
  ["Nc1nc2c(ncn2COC(CO)CO)c(=O)[nH]1", "active"],
  ["CN1CCc2cc(NC(=O)Nc3cccnc3)ccc21", "active"],
  ["C=C[C@@]1(C)CC(=O)[C@]2(O)[C@@]3(C)[C@H](O)CCC(C)(C)[C@@H]3[C@H](O)[C@H](OC(C)=O)[C@@]2(C)O1", "active"],
  ["CN1C(=O)CC[C@H]1c1cccnc1", "inactive"],
  ["O=C1c2c(O)ccc(O)c2C(=O)c2c(NCCNCCO)ccc(NCCNCCO)c21", "active"],
  ["Cc1cccc(C)c1OCC(C)N (centres undefined)", "inactive"],
  ["Nc1ncn([C@@H]2O[C@H](CO)[C@H](O)C2O)c(=O)n1 (some centres undefined)", "inactive"],
  ["OC(CCN1CCCCC1)(c1ccccc1)C1CC2C=CC1C2 (centres undefined)", "active"],
  ["OC(CCN1CCCCC1)(c1ccccc1)C1CCCCC1 (centres undefined)", "inactive"],
  ["C1CCC(N=C(NC23CC4CC(CC(C4)C2)C3)N2CCOCC2)CC1", "inactive"],
  ["CNCCNS(=O)(=O)c1cccc2cnccc12", "inactive"],
  ["CCCNC(=O)NS(=O)(=O)c1ccc(Cl)cc1", "active"],
  ["FC(F)(F)c1ccccc1-n1ccnc1", "active"],
  ["CCc1ccc2c(-c3cccc(Cl)c3)nc(=O)n(CC)c2n1", "inactive"],
  ["CCCC[C@@]1(C2CCCC2)Cc2cc(OCC(=O)O)c(Cl)c(Cl)c2C1=O", "active"],
  ["C[C@@]1(C2CCCC2)Cc2cc(OCC(=O)O)c(Cl)c(Cl)c2C1=O", "inactive"],
  ["CCN(CC)CCCN(c1ccccc1)C1Cc2ccccc2C1", "active"],
  ["CCCCNC(=O)NS(=O)(=O)c1ccc(C)cc1", "inactive"],
  ["CC1CNCCN1S(=O)(=O)c1cccc2cnccc12 (centres undefined)", "active"],
  ["N=c1ccn2c(n1)OC1C(O)[C@@H](CO)O[C@H]12 (some centres undefined)", "active"]
]}
